system: V79; assay: Ratio between V79 and V79-NTRpuro was determined; format: functional, Cricetulus griseus
Ratio of 1 or higher: class 1. Under 1: class 0.

Can COc1cc2cc(C(=O)N3CC(CCl)c4c3cc(N)c3ccccc43)[nH]c2c(OC)c1OC (stereo unspecified) be said to have Ratio at or above 1?
class 0

---

system: SK-OV-3; assay: Inhibitory activity was determined against SKOV3 cell line in human; format: functional, cell-based
Output: class label from IC50. Mapping: low bin (below 60 µM), mid bin (60 µM to below 100 µM), high bin (100 µM or more)

Past entries and their recorded results:
Where would COc1cc2cc(C(=O)C3CN(CCl)c4cc(NC(=O)OCc5ccc([N+](=O)[O-])n5C)c5ccccc5c43)[nH]c2c(OC)c1OC (configuration not stated) land among the classes by reported IC50?
high bin

Category of COc1cc2cc(C(=O)C3CN(CCl)c4cc(NC(=O)OCc5ccn(C)c5[N+](=O)[O-])c5ccccc5c43)[nH]c2c(OC)c1OC (configuration not stated) , please.
high bin

Which band does COc1cc2cc(C(=O)N3CC(CCl)c4c3cc(N)c3ccccc43)[nH]c2c(OC)c1OC (configuration not stated) fall in?
low bin

Using the reported IC50, which band applies to COc1cc2cc(C(=O)C3CN(CCl)c4cc(NC(=O)OCc5cnc([N+](=O)[O-])n5C)c5ccccc5c43)[nH]c2c(OC)c1OC (configuration not stated) ?
mid bin

Next:
The entry to classify is COc1cc2cc(C(=O)C3CN(CCl)c4cc(NC(=O)OCc5ncc([N+](=O)[O-])n5C)c5ccccc5c43)[nH]c2c(OC)c1OC (configuration not stated) ; which class holds it?
high bin

Bin this entry: COc1cc2cc(C(=O)C3CN(CCl)c4cc(NC(=O)OCc5ccc([N+](=O)[O-])s5)c5ccccc5c43)[nH]c2c(OC)c1OC (configuration not stated)
low bin

Form field 'band' for COc1cc2cc(C(=O)C3CN(CCl)c4cc(NC(=O)OCc5ccc([N+](=O)[O-])o5)c5ccccc5c43)[nH]c2c(OC)c1OC (configuration not stated)
mid bin

Category of COc1cc2cc(C(=O)C3CN(CCl)c4cc(NC(=O)OCc5c([N+](=O)[O-])ncn5C)c5ccccc5c43)[nH]c2c(OC)c1OC (configuration not stated) :
high bin

Class (by measured IC50) for COc1cc2cc(C(=O)C3CN(CCl)c4cc(NC(=O)OCc5ncc([N+](=O)[O-])n5CCO)c5ccccc5c43)[nH]c2c(OC)c1OC (configuration not stated)
high bin

Each molecule maps to one class by IC50. Which class for NC(=O)c1cc(N(CCBr)CCBr)c([N+](=O)[O-])cc1[N+](=O)[O-] ?
low bin
